The entries below are paired with their reported glycan array binding signal (z-score).
ASSAYED_SYSTEM: Neu5Ac(a2-6)Gal(b1-4)GlcNAc(b1-2)Man(a1-3)Man(b1-4)GlcNAc(b1-4)GlcNAc
EXPERIMENTAL_PROTOCOL: glycan array binding signal (z-score within array); higher = stronger binding
STATED_CONDITIONS: glycan notation: IUPAC condensed, linker removed
This is one part of a sample in which the strongest signals are shown more often than they occur.
Reply: number alone, nothing else.

Examples with answers:
BINDER	glycan array binding signal (z-score)
Adiponectin (Rattus norvegicus), Q8K3R4 (protein) MLLLQALLFLLILPSHEGITATEGPGALVPPPKETCAGWMAGIPGYPGHNGIPGRDGRDGTPGEKGEKGDAGVLGPKGDPGDAGMTGAEGPRGFPGTPGRKGEPGEAAYMYHSAFSVGLETRVTVPNVPIRFTKIFYNQQNHYDGSTGKFHCNIPGLYYFSYHITVYMKDVKVSLFKKDKAVLFTYDQYQEKNVDQASGSMLLHLEVGDQVWLQVYGEGDNNGLYADNVNDSTFTGFLLYHDTN	0.717
UDA (Urtica dioica), P11218 (protein) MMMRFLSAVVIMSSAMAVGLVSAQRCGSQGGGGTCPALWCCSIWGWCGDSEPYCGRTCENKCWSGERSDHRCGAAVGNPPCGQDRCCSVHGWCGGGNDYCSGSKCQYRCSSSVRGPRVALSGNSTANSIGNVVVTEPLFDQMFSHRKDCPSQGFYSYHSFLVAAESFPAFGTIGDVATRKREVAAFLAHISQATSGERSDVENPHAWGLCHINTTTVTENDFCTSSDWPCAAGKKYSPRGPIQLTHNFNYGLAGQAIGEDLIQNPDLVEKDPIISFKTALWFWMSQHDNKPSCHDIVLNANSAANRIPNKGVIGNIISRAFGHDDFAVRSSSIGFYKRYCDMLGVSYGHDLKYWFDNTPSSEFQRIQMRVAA	1.69
CC1G-11630 (Coprinopsis cinerea), A8P462 (protein) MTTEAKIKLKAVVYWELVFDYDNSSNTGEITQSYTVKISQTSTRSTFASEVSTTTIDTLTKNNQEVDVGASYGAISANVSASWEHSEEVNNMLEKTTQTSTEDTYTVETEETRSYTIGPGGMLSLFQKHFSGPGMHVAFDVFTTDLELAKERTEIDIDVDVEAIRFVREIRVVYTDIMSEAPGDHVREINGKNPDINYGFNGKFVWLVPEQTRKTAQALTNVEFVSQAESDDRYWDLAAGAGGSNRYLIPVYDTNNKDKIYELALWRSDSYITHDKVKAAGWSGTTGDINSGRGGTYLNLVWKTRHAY	-0.49

Here is another binder to look at.
[Q] I have this binder here, DBA (Dolichos biflorus) (protein) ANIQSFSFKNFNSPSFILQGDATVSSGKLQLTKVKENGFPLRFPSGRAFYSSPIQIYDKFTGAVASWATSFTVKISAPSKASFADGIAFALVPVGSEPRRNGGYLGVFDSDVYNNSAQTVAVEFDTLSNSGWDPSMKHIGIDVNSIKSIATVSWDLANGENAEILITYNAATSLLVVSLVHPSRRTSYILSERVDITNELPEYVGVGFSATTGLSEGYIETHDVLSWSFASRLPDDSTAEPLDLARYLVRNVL , and I need its recorded glycan array binding signal (z-score).
[A] -0.098

All values here come from the supplement of paper PMC8728848.
